# TARGET: CK1α (Homo sapiens, UniProt P48729+Q96SW2)
# Construct: expressed in transfected cells
# Sequence (P48729 whole entry): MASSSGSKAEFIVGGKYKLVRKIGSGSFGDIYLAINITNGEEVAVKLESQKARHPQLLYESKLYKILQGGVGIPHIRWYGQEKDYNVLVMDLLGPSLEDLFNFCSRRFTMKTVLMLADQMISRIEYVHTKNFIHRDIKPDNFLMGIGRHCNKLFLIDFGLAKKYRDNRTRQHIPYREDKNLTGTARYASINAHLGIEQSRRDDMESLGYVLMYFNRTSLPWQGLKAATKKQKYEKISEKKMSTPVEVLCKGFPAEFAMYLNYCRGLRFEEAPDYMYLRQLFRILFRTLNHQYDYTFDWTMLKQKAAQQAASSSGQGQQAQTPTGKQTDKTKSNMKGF
# Sequence (Q96SW2 whole entry): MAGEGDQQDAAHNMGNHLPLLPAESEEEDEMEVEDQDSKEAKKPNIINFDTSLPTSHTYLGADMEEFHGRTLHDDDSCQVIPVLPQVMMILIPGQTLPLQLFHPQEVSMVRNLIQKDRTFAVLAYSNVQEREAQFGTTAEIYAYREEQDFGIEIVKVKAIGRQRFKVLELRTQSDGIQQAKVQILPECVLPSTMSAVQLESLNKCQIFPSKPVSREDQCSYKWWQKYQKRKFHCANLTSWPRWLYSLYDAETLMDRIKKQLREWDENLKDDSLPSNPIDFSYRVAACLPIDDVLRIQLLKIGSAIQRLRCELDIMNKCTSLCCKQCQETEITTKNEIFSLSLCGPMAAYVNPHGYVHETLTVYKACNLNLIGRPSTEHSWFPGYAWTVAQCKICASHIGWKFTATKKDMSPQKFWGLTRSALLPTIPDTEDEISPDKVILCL
# Sequence (Q16531 whole entry partner): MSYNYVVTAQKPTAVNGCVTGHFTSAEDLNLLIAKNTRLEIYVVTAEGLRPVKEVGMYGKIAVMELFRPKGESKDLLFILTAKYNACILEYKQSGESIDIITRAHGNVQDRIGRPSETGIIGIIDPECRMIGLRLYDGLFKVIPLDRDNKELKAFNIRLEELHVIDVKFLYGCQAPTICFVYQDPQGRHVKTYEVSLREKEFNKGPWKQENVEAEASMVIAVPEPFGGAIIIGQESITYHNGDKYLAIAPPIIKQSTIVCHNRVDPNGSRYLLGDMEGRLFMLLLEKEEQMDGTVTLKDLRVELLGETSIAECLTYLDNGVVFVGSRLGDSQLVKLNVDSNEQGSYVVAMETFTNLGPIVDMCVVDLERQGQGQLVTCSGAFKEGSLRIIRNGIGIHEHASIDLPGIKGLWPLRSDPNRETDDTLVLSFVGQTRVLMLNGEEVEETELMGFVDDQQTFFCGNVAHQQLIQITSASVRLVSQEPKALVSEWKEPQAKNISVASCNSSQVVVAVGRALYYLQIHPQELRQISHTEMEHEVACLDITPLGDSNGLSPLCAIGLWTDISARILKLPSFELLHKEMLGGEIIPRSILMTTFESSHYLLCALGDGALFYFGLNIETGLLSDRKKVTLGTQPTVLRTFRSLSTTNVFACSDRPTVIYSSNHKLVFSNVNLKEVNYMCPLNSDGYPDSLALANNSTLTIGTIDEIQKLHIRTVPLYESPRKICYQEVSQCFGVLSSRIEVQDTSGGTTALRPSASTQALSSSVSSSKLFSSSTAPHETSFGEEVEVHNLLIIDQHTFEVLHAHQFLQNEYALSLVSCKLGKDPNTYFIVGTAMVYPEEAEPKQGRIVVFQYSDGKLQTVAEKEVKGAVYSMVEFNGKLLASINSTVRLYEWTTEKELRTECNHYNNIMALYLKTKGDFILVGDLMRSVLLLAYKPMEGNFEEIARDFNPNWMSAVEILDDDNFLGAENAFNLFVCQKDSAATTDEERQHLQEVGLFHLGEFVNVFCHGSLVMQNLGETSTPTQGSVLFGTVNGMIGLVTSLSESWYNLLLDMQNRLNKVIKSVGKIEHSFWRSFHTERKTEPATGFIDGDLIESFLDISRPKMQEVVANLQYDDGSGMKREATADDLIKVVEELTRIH
# ASSAY DETAILS: CK1α ePL degradation assay in MDS-L cells
# Assay type: cell-based
# TEST SETTINGS: concentration giving 50% CK1α degradation vs DMSO control; MDS-L cells expressing ePL-tagged CK1α
ASSAY METRIC: DC50

Reported DC50, compound "O=C1CC[C@H](N2Cc3cc(C(=O)N[C@H](c4ncc(Cl)cc4Cl)C(F)(F)F)ccc3C2=O)C(=O)N1" : ____
< 100 nM

Form field: reported DC50 of O=C1CCC(N2Cc3cc(C(=O)N[C@H](c4ncc(Cl)cc4Cl)C(F)(F)F)ccc3C2=O)C(=O)N1 (stereo partly shown)
< 100 nM

Record request: DC50 value, item O=C1CCC(N2Cc3cc(C(=O)N[C@H](c4ccccc4F)C(F)(F)F)ccc3C2=O)C(=O)N1 (stereo partly shown)
< 100 nM

Entry under review: O=C1CCC(N2Cc3cc(C(=O)N[C@H](c4ccc(F)cc4)C(F)(F)F)c(F)cc3C2=O)C(=O)N1 (stereo partly shown) . Reported DC50?
100 to 500 nM

Quick one: DC50 for CC(C)[C@H](NC(=O)c1ccc2c(c1)CN(C1CCC(=O)NC1=O)C2=O)c1ccc(F)cc1 (stereo partly shown) ?
< 100 nM

Entry Cc1ccccc1[C@@H](CC(F)(F)F)NC(=O)c1ccc2c(c1)CN(C1CCC(=O)NC1=O)C2=O (stereo partly shown) has what DC50?
< 100 nM

Returns the measured DC50 for the input compound. Input: O=C1CCC(N2Cc3cc(C(=O)N[C@H]([C@H]4CC[C@H](O)CC4)C(F)(F)F)ccc3C2=O)C(=O)N1 (stereo partly shown)
100 to 500 nM

Endpoint output: DC50 of COc1cc(F)ccc1[C@@H](NC(=O)c1ccc2c(c1)CN(C1CCC(=O)NC1=O)C2=O)C(F)(F)F (stereo partly shown) . Value?
< 100 nM

Would you kindly share the measured DC50 for CC1([C@@H](NC(=O)c2ccc3c(c2)CN(C2CCC(=O)NC2=O)C3=O)C(F)(F)F)CCC1 (stereo partly shown) ?
< 100 nM

Data request, read-out DC50, for O=C1CCC(N2Cc3cc(C(=O)N[C@H](CC(F)(F)F)c4ccc(F)cc4)ccc3C2=O)C(=O)N1 (stereo partly shown)
100 to 500 nM

Requested read-out: DC50. Entry: O=C1CCC(N2Cc3c(ccc(C(=O)N[C@H](c4ccccc4OC(F)(F)F)C(F)(F)F)c3F)C2=O)C(=O)N1 (stereo partly shown)
< 100 nM

State the recorded DC50 for this entry: COc1ccc([C@@H](NC(=O)c2ccc3c(c2)CN(C2CCC(=O)NC2=O)C3=O)C(F)(F)F)cc1 (stereo partly shown)
< 100 nM

What DC50 value was documented for this compound, C[C@H](NC(=O)c1ccc2c(c1)CN(C1CCC(=O)NC1=O)C2=O)c1ccc(F)cc1 (stereo partly shown) ?
< 100 nM

DC50 lookup needed for O=C1CCC(N2Cc3cc(C(=O)N[C@H](c4ccc(N5CCOCC5)cc4)C(F)(F)F)ccc3C2=O)C(=O)N1 (stereo partly shown) , thanks.
< 100 nM

Which value of DC50 has been reported for Cc1ccc([C@@H](NC(=O)c2ccc3c(c2F)CN(C2CCC(=O)NC2=O)C3=O)C(F)(F)F)cc1 (stereo partly shown) in the records?
100 to 500 nM

Using the record for O=C1CCC(N2Cc3cc(C(=O)N[C@H](c4ccc(F)cn4)C(F)(F)F)ccc3C2=O)C(=O)N1 (stereo partly shown) , report its DC50.
< 100 nM

Using the record for CC(C)[C@@H](NC(=O)c1ccc2c(c1)CN(C1CCC(=O)NC1=O)C2=O)c1ncccc1Cl (stereo partly shown) , report its DC50.
100 to 500 nM

Endpoint output: DC50 of O=C1CCC(N2Cc3c(ccc(C(=O)N[C@H](c4ccccc4F)C(F)(F)F)c3F)C2=O)C(=O)N1 (stereo partly shown) . Value?
100 to 500 nM

Quick check: DC50 of O=C1CCC(N2Cc3cc(C(=O)N[C@H](c4ccc(Oc5ccccc5)cc4)C(F)(F)F)ccc3C2=O)C(=O)N1 (stereo partly shown) ?
100 to 500 nM

Look up DC50: O=C1CCC(N2Cc3cc(C(=O)N[C@H](c4ccc(CN5CCCC5)cc4)C(F)(F)F)ccc3C2=O)C(=O)N1 (stereo partly shown)
< 100 nM

Fill in the blank: the reported DC50 of O=C1CCC(N2Cc3cc(C(=O)N[C@H](c4ccc(OC(F)(F)F)cc4)C(F)(F)F)ccc3C2=O)C(=O)N1 (stereo partly shown) is ____.
100 to 500 nM

GET /values?readout=DC50&item= CC(C)(O)C12CC([C@@H](NC(=O)c3ccc4c(c3)CN(C3CCC(=O)NC3=O)C4=O)C(F)(F)F)(C1)C2 (stereo partly shown)
< 100 nM
